# Assayed System: CBP (Homo sapiens)
# Construct: host or cells: A549 CBP HiBit cells
# Sequence (Q92793 whole entry): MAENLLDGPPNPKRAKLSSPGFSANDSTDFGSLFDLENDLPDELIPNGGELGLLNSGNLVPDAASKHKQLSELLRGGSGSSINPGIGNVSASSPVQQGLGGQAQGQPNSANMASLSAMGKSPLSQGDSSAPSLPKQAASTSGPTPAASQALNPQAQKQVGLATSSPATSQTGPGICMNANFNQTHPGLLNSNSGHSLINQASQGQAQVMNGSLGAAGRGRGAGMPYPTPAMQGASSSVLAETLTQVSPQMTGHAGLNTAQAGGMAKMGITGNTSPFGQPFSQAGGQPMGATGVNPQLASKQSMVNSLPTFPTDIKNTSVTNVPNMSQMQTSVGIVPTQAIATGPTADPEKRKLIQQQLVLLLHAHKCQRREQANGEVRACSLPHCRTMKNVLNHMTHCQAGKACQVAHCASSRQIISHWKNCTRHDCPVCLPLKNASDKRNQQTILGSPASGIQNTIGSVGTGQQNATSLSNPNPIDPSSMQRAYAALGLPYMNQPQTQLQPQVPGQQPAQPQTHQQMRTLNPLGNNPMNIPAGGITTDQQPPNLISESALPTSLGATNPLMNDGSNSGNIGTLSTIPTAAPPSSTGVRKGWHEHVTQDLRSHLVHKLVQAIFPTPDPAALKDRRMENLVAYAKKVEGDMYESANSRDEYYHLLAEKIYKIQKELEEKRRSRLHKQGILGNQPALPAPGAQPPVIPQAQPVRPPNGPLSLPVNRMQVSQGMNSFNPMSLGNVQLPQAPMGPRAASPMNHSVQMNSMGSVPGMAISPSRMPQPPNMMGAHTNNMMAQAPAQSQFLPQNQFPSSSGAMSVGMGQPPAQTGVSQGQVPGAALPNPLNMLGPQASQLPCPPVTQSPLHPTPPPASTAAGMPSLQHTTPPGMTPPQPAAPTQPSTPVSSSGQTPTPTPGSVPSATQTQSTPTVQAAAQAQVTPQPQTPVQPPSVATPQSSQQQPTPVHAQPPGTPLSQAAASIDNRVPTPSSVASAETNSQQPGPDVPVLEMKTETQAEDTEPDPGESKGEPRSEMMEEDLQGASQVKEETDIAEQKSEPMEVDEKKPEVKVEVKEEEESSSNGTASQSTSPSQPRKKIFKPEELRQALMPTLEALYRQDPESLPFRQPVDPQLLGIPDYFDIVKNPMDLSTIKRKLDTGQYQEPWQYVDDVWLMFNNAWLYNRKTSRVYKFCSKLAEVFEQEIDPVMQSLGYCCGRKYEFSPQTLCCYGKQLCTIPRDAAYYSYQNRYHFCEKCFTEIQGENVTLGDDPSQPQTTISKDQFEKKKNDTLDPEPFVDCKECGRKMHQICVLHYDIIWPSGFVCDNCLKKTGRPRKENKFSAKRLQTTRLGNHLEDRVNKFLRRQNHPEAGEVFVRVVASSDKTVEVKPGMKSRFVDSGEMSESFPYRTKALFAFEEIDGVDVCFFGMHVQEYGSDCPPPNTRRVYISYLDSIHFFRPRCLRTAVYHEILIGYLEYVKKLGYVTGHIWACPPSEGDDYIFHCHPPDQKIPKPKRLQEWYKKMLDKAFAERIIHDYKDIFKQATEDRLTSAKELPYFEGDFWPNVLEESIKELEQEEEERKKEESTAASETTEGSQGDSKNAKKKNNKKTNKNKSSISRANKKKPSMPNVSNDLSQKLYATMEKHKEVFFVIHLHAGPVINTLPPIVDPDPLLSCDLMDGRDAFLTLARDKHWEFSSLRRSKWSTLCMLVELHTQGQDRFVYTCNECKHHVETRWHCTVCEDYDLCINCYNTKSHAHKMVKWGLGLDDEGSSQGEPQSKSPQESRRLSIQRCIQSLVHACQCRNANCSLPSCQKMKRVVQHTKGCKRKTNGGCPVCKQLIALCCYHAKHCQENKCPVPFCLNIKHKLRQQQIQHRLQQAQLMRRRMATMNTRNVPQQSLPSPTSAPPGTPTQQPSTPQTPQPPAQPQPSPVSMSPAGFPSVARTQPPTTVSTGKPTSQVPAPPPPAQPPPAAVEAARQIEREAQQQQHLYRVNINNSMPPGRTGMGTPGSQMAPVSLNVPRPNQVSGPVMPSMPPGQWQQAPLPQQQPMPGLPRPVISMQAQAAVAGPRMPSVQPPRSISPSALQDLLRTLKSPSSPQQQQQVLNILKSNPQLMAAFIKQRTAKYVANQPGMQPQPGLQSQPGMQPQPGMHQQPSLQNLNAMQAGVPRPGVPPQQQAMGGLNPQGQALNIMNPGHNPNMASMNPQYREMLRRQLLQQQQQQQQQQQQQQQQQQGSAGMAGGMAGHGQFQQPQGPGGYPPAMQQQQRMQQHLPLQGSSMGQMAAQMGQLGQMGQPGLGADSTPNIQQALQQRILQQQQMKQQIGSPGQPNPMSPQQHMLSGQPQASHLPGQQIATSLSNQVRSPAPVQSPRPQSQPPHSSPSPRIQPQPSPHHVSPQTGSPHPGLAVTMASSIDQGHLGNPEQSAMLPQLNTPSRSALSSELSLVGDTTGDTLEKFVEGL
# Method Notes: CBP degradation, HiBit technology in A549 CBP HiBit cells (24 h)
# Type: cell-based
# Protocol Conditions: 24 hrs post treatment
# Description: p300 and CBP degradation potency and Dmax were determined using in cell western (ICW) assay technology in H1299 cells or HiBit technology in A549 HiBit cells. A549 P300 HiBit and A549 CBP HiBit cells were plated in separate 384-well, TC treated, white-opaque, flat-bottomed microplate. […] After incubation, luminescent signal of each plate was measured using the Envision instrument (Perkin Elmer).
# Dmax values compiled below

Worked examples, 5 compounds total:
Cc1cc2c(N3CCOc4cc(-c5ccc(C(=O)NCC#Cc6ccc7occ(C8CCC(=O)NC8=O)c7c6)nc5)c(F)cc43)cc(N3CC(C)(O)C3)cc2n(C)c1=O (stereo not drawn) [Example B63]; 20 to 39%
Cc1cc(-c2cc3c(cn2)N(c2cc(C(C)C)c4c(c2)n(C)c(=O)n4C)CCC3)cnc1C(=O)NCC#Cc1ccn2ncc(C3CCC(=O)NC3=O)c2c1 (stereo not drawn) [Example A238]; 40 to 59%
CC(C)c1cc(-c2cccc3cc(-c4ccc(C(=O)NCC#Cc5ccc6nnn(C7CCC(=O)NC7=O)c6c5)nc4)ncc23)cc2c1n(C)c(=O)n2C (stereo not drawn) [Example A3]; < 20%
Cc1cc(-c2ncc3c(n2)CCCN3c2cc(C3CCOCC3)cc3c2cc(C)c(=O)n3C)cnc1C(=O)NCC#Cc1cc2c(C3CCC(=O)NC3=O)cccc2o1 (stereo not drawn) [Example B141]; 20 to 39%
Cc1cc2c(N3CCCc4nc(-c5ccc(C(=O)NCC#Cc6cc7c(C8CCC(=O)NC8=O)cccc7o6)nc5)ncc43)cccc2n(C)c1=O (stereo not drawn) [Example B67]; < 20%

// below: Dmax requested for another compound
*Q* For the compound shown here, Cc1cc2c(N3CCCc4nc(-c5ccc(C(=O)NCC#Cc6cc7c(C8CCC(=O)NC8=O)nccc7o6)nc5)ncc43)cc(C(C)C)cc2n(C)c1=O (stereo not drawn) [Example B157] , give the reported Dmax.
*A* 20 to 39%

###

# Assayed System: p300 (Homo sapiens)
# Construct: host or cells: A549 P300 HiBit cells
# Sequence (Q09472 whole entry): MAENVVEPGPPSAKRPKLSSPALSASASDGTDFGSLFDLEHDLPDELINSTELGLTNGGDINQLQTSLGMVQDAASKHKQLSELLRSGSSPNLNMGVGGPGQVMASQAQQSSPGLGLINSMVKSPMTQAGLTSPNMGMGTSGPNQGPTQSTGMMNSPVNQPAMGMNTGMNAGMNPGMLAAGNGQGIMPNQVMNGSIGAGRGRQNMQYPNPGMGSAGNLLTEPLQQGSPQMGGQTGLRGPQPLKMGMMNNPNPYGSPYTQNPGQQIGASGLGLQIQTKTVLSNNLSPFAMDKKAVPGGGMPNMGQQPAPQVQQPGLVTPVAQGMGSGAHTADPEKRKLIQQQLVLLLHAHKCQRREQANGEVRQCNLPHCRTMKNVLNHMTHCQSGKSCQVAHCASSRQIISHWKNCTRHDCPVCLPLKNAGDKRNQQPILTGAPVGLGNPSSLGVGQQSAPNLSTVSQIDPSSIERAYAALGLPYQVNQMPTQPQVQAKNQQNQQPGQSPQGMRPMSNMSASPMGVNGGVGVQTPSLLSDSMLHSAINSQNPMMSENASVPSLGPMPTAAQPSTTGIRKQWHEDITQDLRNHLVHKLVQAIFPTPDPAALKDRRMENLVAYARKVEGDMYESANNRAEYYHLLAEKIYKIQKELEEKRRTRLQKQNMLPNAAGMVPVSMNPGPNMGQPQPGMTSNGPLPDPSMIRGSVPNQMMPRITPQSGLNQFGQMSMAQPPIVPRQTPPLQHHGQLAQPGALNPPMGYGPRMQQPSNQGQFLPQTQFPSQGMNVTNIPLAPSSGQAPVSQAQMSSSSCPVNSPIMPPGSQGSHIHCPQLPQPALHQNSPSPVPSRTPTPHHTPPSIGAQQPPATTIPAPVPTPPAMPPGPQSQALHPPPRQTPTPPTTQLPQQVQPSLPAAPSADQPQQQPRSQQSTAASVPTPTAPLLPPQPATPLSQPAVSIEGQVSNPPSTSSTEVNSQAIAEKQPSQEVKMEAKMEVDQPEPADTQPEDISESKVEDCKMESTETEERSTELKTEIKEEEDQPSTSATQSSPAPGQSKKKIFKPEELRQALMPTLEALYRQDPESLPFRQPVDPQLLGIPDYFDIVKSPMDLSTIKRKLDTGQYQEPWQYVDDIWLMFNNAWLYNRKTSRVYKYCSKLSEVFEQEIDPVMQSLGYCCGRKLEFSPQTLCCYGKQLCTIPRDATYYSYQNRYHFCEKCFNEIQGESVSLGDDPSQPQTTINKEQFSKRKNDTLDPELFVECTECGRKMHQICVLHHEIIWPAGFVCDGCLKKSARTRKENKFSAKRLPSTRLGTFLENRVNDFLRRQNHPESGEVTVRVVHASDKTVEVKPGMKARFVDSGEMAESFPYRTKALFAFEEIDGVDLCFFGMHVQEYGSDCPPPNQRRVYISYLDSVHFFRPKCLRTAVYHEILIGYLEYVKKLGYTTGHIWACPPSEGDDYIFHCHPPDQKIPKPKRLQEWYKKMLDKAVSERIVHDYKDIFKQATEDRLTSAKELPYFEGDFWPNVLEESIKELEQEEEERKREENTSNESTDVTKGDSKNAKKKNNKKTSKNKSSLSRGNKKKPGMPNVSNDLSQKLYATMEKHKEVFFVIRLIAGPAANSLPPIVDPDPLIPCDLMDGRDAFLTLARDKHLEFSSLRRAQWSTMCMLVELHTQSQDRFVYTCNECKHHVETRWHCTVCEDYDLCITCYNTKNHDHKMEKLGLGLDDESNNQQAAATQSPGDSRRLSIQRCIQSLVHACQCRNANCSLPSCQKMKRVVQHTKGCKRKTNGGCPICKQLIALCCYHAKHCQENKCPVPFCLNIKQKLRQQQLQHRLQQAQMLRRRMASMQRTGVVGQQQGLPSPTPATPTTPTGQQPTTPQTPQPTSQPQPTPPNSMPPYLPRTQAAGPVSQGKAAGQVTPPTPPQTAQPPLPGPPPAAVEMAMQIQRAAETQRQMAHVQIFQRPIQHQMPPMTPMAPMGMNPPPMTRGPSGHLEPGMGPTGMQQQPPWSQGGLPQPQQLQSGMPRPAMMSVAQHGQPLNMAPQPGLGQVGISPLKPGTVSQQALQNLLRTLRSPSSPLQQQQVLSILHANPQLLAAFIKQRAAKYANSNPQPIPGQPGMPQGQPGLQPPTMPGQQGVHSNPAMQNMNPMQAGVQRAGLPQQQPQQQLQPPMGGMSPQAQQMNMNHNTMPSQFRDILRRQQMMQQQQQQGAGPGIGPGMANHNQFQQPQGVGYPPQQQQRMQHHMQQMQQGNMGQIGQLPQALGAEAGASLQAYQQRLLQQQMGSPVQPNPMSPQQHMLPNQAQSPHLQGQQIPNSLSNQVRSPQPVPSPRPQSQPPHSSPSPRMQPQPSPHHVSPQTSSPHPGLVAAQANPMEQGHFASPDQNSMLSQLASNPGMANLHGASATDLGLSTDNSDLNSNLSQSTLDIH
# Method Notes: P300 degradation, HiBit technology in A549 P300 HiBit cells (2 h)
# Assay type: cell-based
# Protocol Conditions: A549, A549 P300 HiBit cells, 2 hrs post treatment
Readout Type: Dmax

Below are worked cases with known answers.
CC(C)c1cc(-c2cn(C)c(=O)c3cc(-c4ccc(C(=O)NCC#Cc5ccc6occ(C7CCC(=O)NC7=O)c6c5)nc4)ncc23)cc2c1n(C)c(=O)n2C (stereo not drawn); > 80%
COc1nc(-c2cnc(C(=O)NCC#Cc3cc4c(C5CCC(=O)NC5=O)cccc4o3)c(C)c2)ncc1Nc1cc(C2CCOCC2)c2c(c1)n(C)c(=O)n2C (stereo not drawn); > 80%

*Q* Which Dmax value belongs to Cc1cc(N2CCOc3nc(-c4ccc(C(=O)NCC#Cc5cc6c(C7CCC(=O)NC7=O)cccc6o5)nc4)ncc32)cc2c1n(C)c(=O)n2C (stereo not drawn) ?
*A* > 80%

*Q* Given the molecule Cc1cc(-c2ccc(N(C)c3cc(C(C)C)c4c(c3)n(C)c(=O)n4C)cc2C(F)(F)F)cnc1C(=O)NCC#Cc1cccc(NC2CCC(=O)NC2=O)c1 (stereo not drawn) , what is its reported Dmax?
*A* 60 to 79%

*Q* Query (molecule): Cc1cc2c(N3CCOc4cc(-c5ccc(C(=O)NCC#Cc6ccc7occ(C8CCC(=O)NC8=O)c7c6)nc5)ncc43)cccc2n(C)c1=O (stereo not drawn) ; field requested: Dmax
*A* > 80%

*Q* Quick one: Dmax for CC(C)c1cc(-c2cccc3cc(-c4ccc(C(=O)NCC#Cc5oc6c(C7CCC(=O)NC7=O)cccc6c5F)nc4)ncc23)cc2c1n(C)c(=O)n2C (stereo not drawn) ?
*A* > 80%

###

# Assayed System: CBP (Homo sapiens)
# Construct: host or cells: A549 CBP HiBit cells
# Method Notes: CBP degradation, HiBit technology in A549 CBP HiBit cells (24 h)
# Format: cell-based
# Protocol Conditions: 24 hrs post treatment
Catalogue of molecules with associated DC50

CN1Cc2c(-c3cccc4cc(-c5ccc(C(=O)NCC#Cc6ccc7cnn(C8CCC(=O)NC8=O)c7c6)nc5)ncc34)cc(C(C)(F)F)cc2N(C)C1=O (stereo not drawn) [Example B111]; 10 to 99 nM
Cc1cc2c(N3CCCc4nc(-c5ccc(C(=O)NCC#Cc6cc7c([C@H]8CCC(=O)NC8=O)cccc7o6)nc5)ncc43)cc(C3CCOCC3)cc2n(C)c1=O [Example B38]; > 1000 nM
Cc1cc2c(N3CCCc4nc(-c5ccc(C(=O)NCC#Cc6cc7c(C8CCC(=O)NC8=O)cccc7o6)nc5)ncc43)cc(C3CCC3)nc2n(C)c1=O (stereo not drawn) [Example B164]; > 1000 nM
CC(C)c1cc(C2=CC(C)(C)Oc3cc(-c4ccc(C(=O)NCC#Cc5ccc6occ(C7CCC(=O)NC7=O)c6c5)nc4)ncc32)cc2c1n(C)c(=O)n2C (stereo not drawn) [Example A75]; > 1000 nM

*Q* If you can, please state the reported DC50 value of Cc1cc2c(N3CCCc4nc(-c5ccc(C(=O)NCC#Cc6ccc7occ([C@@H]8CCC(=O)NC8=O)c7c6)nc5)ncc43)cc(C3CCOCC3)cc2n(C)c1=O [Example B55] .
*A* > 1000 nM

*Q* # input molecule: Cc1cc(N2CCOc3nc(-c4ccc(C(=O)NCC#Cc5cc6c(C7CCC(=O)NC7=O)nccc6o5)nc4)ncc32)cc2c1n(C)c(=O)n2C (stereo not drawn) [Example A160] ; wanted: its DC50
*A* > 1000 nM

*Q* Which DC50 is listed for CC(C)c1cc(-c2cccc3cc(-c4ccc(C(=O)NCC#Cc5ccc6oc(F)c(C7CCC(=O)NC7=O)c6c5)nc4)ncc23)cc2c1n(C)c(=O)n2C (stereo not drawn) [Example A158] ?
*A* 10 to 99 nM

*Q* // lookup DC50 for CC(C)c1cc(C2CC(C)(C)Oc3cc(-c4ccc(C(=O)NCC#Cc5ccc6occ(C7CCC(=O)NC7=O)c6c5)nc4)ncc32)cc2c1n(C)c(=O)n2C (stereo not drawn) [Example A83]
*A* > 1000 nM

*Q* Would you mind telling me what DC50 value was observed for CC(C)c1cc(-c2cccc3cc(-c4ccc(C(=O)NCC#Cc5ccc6ccnc(C7CCC(=O)NC7=O)c6c5)nc4)ncc23)cc2c1n(C)c(=O)n2C (stereo not drawn) [Example A10] ?
*A* > 1000 nM

###

# Assayed System: p300 (Homo sapiens)
# Construct: host or cells: A549 P300 HiBit cells
# Method Notes: P300 degradation, HiBit technology in A549 P300 HiBit cells (2 h)
# Type: cell-based
# Protocol Conditions: A549, A549 P300 HiBit cells, 2 hrs post treatment
Readout Type: Dmax

*Q* What does the record list as Dmax for Cc1cc(-c2cn(C)c(=O)c3cc(-c4ccc(C(=O)NCC#Cc5ccc6occ(C7CCC(=O)NC7=O)c6c5)nc4)ncc23)cc2c1n(C)c(=O)n2C (stereo not shown) ?
*A* > 80%

*Q* Which measured Dmax value corresponds to [2H]C([2H])([2H])N(c1cnc(-c2cnc(C(=O)NCC#Cc3ccc4occ(C5CCC(=O)NC5=O)c4c3)c(C)c2)nc1)c1cc(C(C)C)c2c(c1)n(C)c(=O)n2C (stereo not shown) ?
*A* > 80%

*Q* Quick one: Dmax of CC(C)c1cc(-c2cccc3cc(-c4ccc(C(=O)NCC#Cc5cc(NC6CCC(=O)NC6=O)nn5C)nc4)ncc23)cc2c1n(C)c(=O)n2C (stereo not shown) ?
*A* > 80%

*Q* # lookup: Dmax of Cc1cc2c(N3CCOc4cc(-c5ccc(C(=O)NCC#Cc6ccc7occ(C8CCC(=O)NC8=O)c7c6)nc5)c(F)cc43)cc(N3CC(C)(O)C3)cc2n(C)c1=O (stereo not shown)
*A* > 80%

###

Each item that follows carries a reported DC50.
# Assayed System: CBP (Homo sapiens)
# Construct: host or cells: A549 CBP HiBit cells
# Method Notes: CBP degradation, HiBit technology in A549 CBP HiBit cells (24 h)
# Format: cell-based
# Protocol Conditions: 24 hrs post treatment

Cc1cc(-c2ccc(N(C)c3cc(C4CCOCC4)c4c(c3)n(C)c(=O)n4C)cn2)cnc1C(=O)NCC#Cc1cccc(NC2CCC(=O)NC2=O)c1 (stereo not drawn); > 1000 nM
Cc1cc2c(N3CCCc4nc(-c5ccc(C(=O)NCC#Cc6ccc7onc(C8CCC(=O)NC8=O)c7c6)nc5)ncc43)cc(C3CCOCC3)cc2n(C)c1=O (stereo not drawn); 100 to 999 nM
Cc1cc2c(N3CCCc4nc(-c5ccc(C(=O)NCC#Cc6cc7c([C@@H]8CCC(=O)NC8=O)cccc7o6)nc5)ncc43)cc(C3CCOCC3)nc2n(C)c1=O; > 1000 nM
Cn1c(=O)n(C)c2cc(N3CCOc4nc(-c5ccc(C(=O)NCC#Cc6ccc7occ(C89CC(C8)C(=O)NC9=O)c7c6)nc5)ncc43)ccc21; > 1000 nM
Cc1cc(-c2ncc(N(C)c3cc(C4CCOCC4)cc4c3cc(C)c(=O)n4C)cn2)cnc1C(=O)NCC#Cc1cc2c(C3CCC(=O)NC3=O)cccc2o1 (stereo not drawn); > 1000 nM
Cc1cc(-c2ccc(N(C)c3cc(C(C)C)c4c(c3)n(C)c(=O)n4C)cn2)cnc1C(=O)NCC#Cc1cccc(NC2CCC(=O)NC2=O)c1 (stereo not drawn); > 1000 nM
Cc1cc(-c2ncc(N(C)c3cc(C(C)C)c4c(c3)n(C)c(=O)n4C)cn2)cnc1C(=O)NCC#Cc1cccc(NC2CCC(=O)NC2=O)c1 (stereo not drawn); > 1000 nM
Cn1c(=O)n(C)c2cc(C3=CC(C)(C)Oc4cc(-c5ccc(C(=O)NCC#Cc6ccc7occ(C8CCC(=O)NC8=O)c7c6)nc5)ncc43)ccc21 (stereo not drawn); > 1000 nM
Cc1cc2c(N3CCCc4nc(-c5cnc(C(=O)NCC#Cc6cc7c(C8CCC(=O)NC8=O)cccc7o6)cn5)ncc43)cc(C3CCOCC3)cc2n(C)c1=O (stereo not drawn); > 1000 nM
Cc1cc(-c2cc3cccc(-c4cc(C(C)C)c5c(c4)n(C)c(=O)n5C)c3cn2)cnc1C(=O)NCC#Cc1ccc2occ(C3CCC(=O)NC3=O)c2c1 (stereo not drawn); 10 to 99 nM

*Q* Query: DC50; subject: Cc1cc2c(N3CCCc4nc(-c5ccc(C(=O)NCC#Cc6cc7cccc(C8CCC(=O)NC8=O)c7o6)nc5)ncc43)cc(C3CCOCC3)cc2n(C)c1=O (stereo not drawn)
*A* > 1000 nM

*Q* GET /values?readout=DC50&item= Cc1cc2c(N3CCCc4nc(-c5ccc(C(=O)NCC#Cc6ccc7occ(C8CCC(=O)NC8=O)c7c6)nc5)ncc43)cc(N3CCOCC3)nc2n(C)c1=O (stereo not drawn)
*A* > 1000 nM
